# Tested on: HOP-62 NSCLC
# method: NCI tumour cell line growth inhibition, 48 h
assay-readout: TGI

Worked set:
CC[C@@H]1C[C@H]2CC3c4[nH]c5ccc(O)cc5c4CCN(C2)C31	> 100 µM
O=C1OC(c2ccccc2)(c2cc(Br)c(O)c(Br)c2)c2ccccc21 (stereo not given)	43.5 µM
COc1cccc2c1c(C1=C(c3cn(C)c4ccccc34)C(=O)NC1=O)cn2C	> 25 µM
COc1ccc(-n2c(N)c(C#N)c(C#N)c2-c2ccccc2)cc1	> 100 µM

Given COc1ccc(OC)c(CC(C)N)c1 (stereo not given) , state its recorded TGI.
> 100 µM

Given C=C1C(=O)OC2CC1CCC1(C)OC1CCC(C)=CCCC2(C)O (stereo not given) , state its recorded TGI.
19.4 µM

Given COC1CC(NC(=O)C(F)(F)F)C(OC(C)=O)C(C)O1 (stereo not given) , state its recorded TGI.
> 100 µM

Given `C/C(=N\NC(=S)N(C)CCN(C)C(=S)N/N=C(\C)c1ccccn1)c1ccccn1` , state its recorded TGI.
19 µM

Given `C[C@]12CC[C@H](O)CC1=CC[C@@H]1[C@@H]2CC[C@]2(C)C(=N/O)/C(=C/c3ccc([N+](=O)[O-])cc3)C[C@@H]12` , state its recorded TGI.
21.1 µM

Given `C=CCNS(=O)(=O)c1ncnc2nc[nH]c12` , state its recorded TGI.
> 100 µM

This collection of values is drawn from PubChem BioAssay (NCI).
